species: Homo sapiens; assay: Inhibition of human topoisomerase 2 at 50 uM by plasmid linearization assay
The source made the active and inactive calls. The calls are words filed in the database; no cut-off is given here.

input_smiles: CC(=O)Nc1cc2c3c(cccc3c1)C(=O)N(CCN(C)C)C2=O
Activity: Active
//
input_smiles: CN(C)CCN1C(=O)c2cccc3cc(N)cc(c23)C1=O
Activity: Active
//
input_smiles: CN(C)CCN1C(=O)c2cccc3cc(/N=C\c4cc(O)ccc4O)cc(c23)C1=O
Activity: Active

---

assay: Toxicity in ip dosed B6D2F1 mouse; type: organism-based; details: in vivo
measure_name: MTD

Recorded MTD for "CN(C)CCN1C(=O)c2cccc3cc(NC(=O)Nc4ccc(C#N)cc4)cc(c23)C1=O" , please?
> 80 mg/kg

Item: "CN(C)CCN1C(=O)c2cccc3cc(/N=C\c4cc(O)ccc4O)cc(c23)C1=O"
> 160 mg/kg

Now consider "CN(C)CCN1C(=O)c2cccc3cc(NCc4ccc5c(c4)OCO5)cc(c23)C1=O" .
> 80 mg/kg

Repeat with "CN(C)CCN1C(=O)c2cccc3cc(NC(=S)Nc4ccc(Cl)cc4)cc(c23)C1=O"
> 80 mg/kg

Record: "CCOC(=O)CC(=O)Nc1cc2c3c(cccc3c1)C(=O)N(CCN(C)C)C2=O"
> 80 mg/kg
